biological target: HDAC1 (Homo sapiens); test: Inhibition of HDAC1 deacetylase activity in vitro; assay type: biochemical; settings: ratio of IC50 values
PROPERTY_LABEL: HDAC-1/HDAC-8

Look over these answered cases.
COc1cccc(Cn2ccc3ccc(C(=O)NO)cc32)c1 [Compound 12]	A (A >10 and <100)
O=C(NO)c1ccc2ccn(Cc3ccc(Cl)cc3)c2c1 [Compound 18]	B (B >100)
O=C(NO)c1ccc2ccn(Cc3ccccc3F)c2c1 [Compound 10]	A (A >10 and <100)
COc1cc(Cn2ccc3ccc(C(=O)NO)cc32)cc(OC)c1 [Compound 7]	A (A >10 and <100)

The value of HDAC-1/HDAC-8 measured for the compound O=C(NO)c1ccc2ccn(Cc3ccc(F)cc3)c2c1 [Compound 9] turned out to be A (A >10 and <100)

The value of HDAC-1/HDAC-8 measured for the compound O=C(NO)c1ccc2ccn(Cc3ccccc3)c2c1 [Compound 6] turned out to be A (A >10 and <100)

The value of HDAC-1/HDAC-8 measured for the compound COc1cc(Cn2ccc3ccc(C(=O)NO)cc32)cc(OC)c1OC [Compound 3] turned out to be A (A >10 and <100)

The value of HDAC-1/HDAC-8 measured for the compound O=C(NO)c1ccc2ccn(Cc3ccc(OC(F)F)cc3)c2c1 [Compound 22] turned out to be B (B >100)

The value of HDAC-1/HDAC-8 measured for the compound Cc1cccc(Cn2ccc3ccc(C(=O)NO)cc32)c1 [Compound 5] turned out to be A (A >10 and <100)

The value of HDAC-1/HDAC-8 measured for the compound Cn1cc(Cc2ccc(NC(=O)c3ccccc3)cc2)c2cc(C(=O)NO)ccc21 [Compound 36] turned out to be A (A >10 and <100)

The value of HDAC-1/HDAC-8 measured for the compound Cc1ccc(Cn2ccc3ccc(C(=O)NO)cc32)cc1 [Compound 20] turned out to be B (B >100)

---

target: HDAC1 (Homo sapiens, UniProt Q13547); assay: Inhibition of HDAC1 deacetylase activity in vitro; type: biochemical; conditions: ratio of IC50 values
Sequence (Q13547 whole entry): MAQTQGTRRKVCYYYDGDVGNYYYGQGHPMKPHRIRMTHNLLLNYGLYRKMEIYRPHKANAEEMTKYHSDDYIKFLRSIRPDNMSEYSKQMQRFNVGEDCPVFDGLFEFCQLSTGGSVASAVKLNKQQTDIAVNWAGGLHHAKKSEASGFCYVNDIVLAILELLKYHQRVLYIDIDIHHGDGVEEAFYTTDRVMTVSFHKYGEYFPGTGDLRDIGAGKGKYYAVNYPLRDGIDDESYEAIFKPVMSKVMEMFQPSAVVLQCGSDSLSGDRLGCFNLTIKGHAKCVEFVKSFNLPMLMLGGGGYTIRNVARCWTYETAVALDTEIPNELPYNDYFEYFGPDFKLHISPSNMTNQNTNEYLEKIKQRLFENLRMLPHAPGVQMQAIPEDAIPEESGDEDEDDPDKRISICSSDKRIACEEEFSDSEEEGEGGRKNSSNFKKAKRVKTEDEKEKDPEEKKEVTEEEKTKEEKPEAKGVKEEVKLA
PROPERTY_LABEL: HDAC-1/HDAC-8

Look over these answered cases.
O=C(NO)c1ccc2ccn(Cc3ccccc3Cl)c2c1	A (A >10 and <100)
O=C(NO)c1ccc2ccn(CC3CCCCC3)c2c1	A (A >10 and <100)
Cn1cc(Cc2ccc(F)cc2)c2cc(C(=O)NO)ccc21	B (B >100)
O=C(NO)c1ccc2ccn(Cc3ccc(OC(F)(F)F)cc3)c2c1	B (B >100)
Cn1cc(Cc2ccc([N+](=O)[O-])cc2)c2cc(C(=O)NO)ccc21	A (A >10 and <100)
CC(C)n1cc(Cc2ccccc2)c2cc(C(=O)NO)ccc21	A (A >10 and <100)

API: the following record is the query input.
The value of HDAC-1/HDAC-8 measured for the compound O=C(NO)c1ccc2ccn(Cc3ccc(Cl)c(Cl)c3)c2c1 turned out to be A (A >10 and <100)

---

target: UniProt:Q13547; assay: Inhibition of HDAC1 deacetylase activity in vitro; assay type: biochemical; settings: ratio of IC50 values
PROPERTY_LABEL: HDAC-1/HDAC-8

Look over these answered cases.
Cn1cc(Cc2ccc(N)cc2)c2cc(C(=O)NO)ccc21	A (A >10 and <100)
COc1ccc(Cn2ccc3ccc(C(=O)NO)cc32)cc1F	B (B >100)
O=C(NO)c1ccc2ccn(Cc3ccc4nonc4c3)c2c1	B (B >100)
O=C(NO)c1ccc2ccn(Cc3cccc(F)c3)c2c1	A (A >10 and <100)
CCn1cc(Cc2ccccc2)c2cc(C(=O)NO)ccc21	A (A >10 and <100)

The value of HDAC-1/HDAC-8 measured for the compound O=C(NO)c1ccc2ccn(CCCc3ccccc3)c2c1 turned out to be A (A >10 and <100)

The value of HDAC-1/HDAC-8 measured for the compound Cc1ccccc1Cn1ccc2ccc(C(=O)NO)cc21 turned out to be A (A >10 and <100)

The value of HDAC-1/HDAC-8 measured for the compound O=C(NO)c1ccc2ccn(Cc3ccc4ccccc4c3)c2c1 turned out to be A (A >10 and <100)

The value of HDAC-1/HDAC-8 measured for the compound O=C(NO)c1ccc2ccn(CC=Cc3ccccc3)c2c1 turned out to be B (B >100)

The value of HDAC-1/HDAC-8 measured for the compound CC(c1ccccc1)n1ccc2ccc(C(=O)NO)cc21 (stereo not shown) turned out to be A (A >10 and <100)
